These entries and their values trace back to patent US7524853B2.

biological target: 17β-hydroxysteroid dehydrogenase type 1 (17β-HSD type 1) (Homo sapiens); construct: expressed in transfected cells; host or cells: MCF-7; experiment: Inhibition of 17β-HSD type 1 in MCF-7 cells stably expressing the isoenzyme (tritium labeled estrone conversion, HPLC); assay type: cell-based; conditions: MCF7; 1 μM test compound; MCF-7 cells expressing 17β-HSD type 1; 2 nM tritium labeled estrone; read-out: % Inhibition HSD1 1 μM
measure-name: inhibition at 1 µM (%)

Some entries whose results are on file:
>>> df
                                   molecule        measure_name  u  recorded_number
0  COc1cc(-c2nc3sc4c(c3c(=O)n2Cc2ccccc2)C(Br)CCC4=O)cc(OC)c1OC (stereo not shown)  inhibition at 1 µM  %               35
1  CCCCn1c(-c2cc(OC)c(OC)c(OC)c2)nc2sc3c(c2c1=O)CCCC3=O  inhibition at 1 µM  %             23.6

I. O=C1c2sc3nc(-c4ccccc4)n(Cc4ccccc4)c(=O)c3c2CCC1Br (stereo not shown)
II. COc1cccc(-c2nc3sc4c(OC(C)=O)cccc4c3c(=O)n2Cc2ccccc2)c1
Smaller inhibition at 1 µM value? Options are I and II // caller expects the label of the chosen entry
II
(II: 10.2%, I: 25.5%)

----------
biological target: 17β-hydroxysteroid dehydrogenase type 1 (17β-HSD type 1) (Homo sapiens); construct: expressed in transfected cells; host or cells: MCF-7; assay: Inhibition of 17β-HSD type 1 in MCF-7 cells stably expressing the isoenzyme (tritium labeled estrone conversion, HPLC); format: cell-based; settings: MCF7; 1 μM test compound; MCF-7 cells expressing 17β-HSD type 1; 2 nM tritium labeled estrone; read-out: % Inhibition HSD1 1 μM
measure-name: inhibition at 1 µM (%)

In [3]: df
Out[3]:
                                   compound  u  recorded_number
0  CCCCn1c(-c2ccccc2OC)nc2sc3c(O)cccc3c2c1=O  %             30.6
1  CCCCn1c(-c2cc(OC)c(OC)c(OC)c2)nc2sc3c(c2c1=O)CCCC3  %             24.1
2  CC(=O)OCc1nc2sc3c(c2c(=O)n1Cc1ccccc1)CCCC3=O  %             25.4

P. COc1cc(-c2nc3sc4c(c3c(=O)n2Cc2ccccc2)CCC(C=O)=C4Sc2ccccc2)cc(OC)c1OC
Q. O=C1c2sc3nc(-c4ccc(Br)s4)n(Cc4ccccc4)c(=O)c3c2CCC1Br (centres unmarked)
Returns: the argument ( P or Q ) having the larger inhibition at 1 µM. // caller expects the label of the chosen entry
P

----------
molecular target: 17β-hydroxysteroid dehydrogenase type 1 (17β-HSD type 1) (Homo sapiens, UniProt P14061); construct: expressed in transfected cells; host or cells: MCF-7; assay: Inhibition of 17β-HSD type 1 in MCF-7 cells stably expressing the isoenzyme (tritium labeled estrone conversion, HPLC); type: cell-based; details: MCF7; 10 μM test compound; MCF-7 cells expressing 17β-HSD type 1; 2 nM tritium labeled estrone; read-out: % Inhibition HSD1 10 μM
Sequence (P14061 whole entry): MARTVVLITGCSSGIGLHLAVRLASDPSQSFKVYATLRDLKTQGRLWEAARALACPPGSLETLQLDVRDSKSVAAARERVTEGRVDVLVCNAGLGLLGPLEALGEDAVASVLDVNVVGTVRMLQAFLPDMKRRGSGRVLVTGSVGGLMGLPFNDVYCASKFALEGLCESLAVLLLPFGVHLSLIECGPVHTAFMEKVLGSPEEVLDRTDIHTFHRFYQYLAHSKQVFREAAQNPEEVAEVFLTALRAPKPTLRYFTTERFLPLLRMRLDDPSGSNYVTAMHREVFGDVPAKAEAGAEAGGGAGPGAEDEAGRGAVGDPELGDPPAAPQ
measure-name: inhibition at 10 µM (%)

Some entries whose results are on file:
>>> df
                                   compound  recorded_number
0  COc1ccc(-c2nc3sc4c(c3c(=O)n2Cc2ccccc2)CCCC4=O)cc1             43.6
1  O=c1c2c3c(sc2nc(-c2cc(O)c(O)c(O)c2)n1-c1ccccc1)CCCC3             23.8

A. CCCc1nc2sc3c(O)c(Br)ccc3c2c(=O)n1Cc1ccc(Br)o1
B. Cc1nc2sc3c(c2c(=O)n1-c1ccccc1)CCCC3
Smaller inhibition at 10 µM value? Options are A and B // caller expects the label of the chosen entry
B
(B: 15.4%, A: 24.7%)

----------
Target: 17β-hydroxysteroid dehydrogenase type 2 (17β-HSD type 2) (Homo sapiens)
Construct: expressed in transfected cells; host or cells: MCF-7
Sequence (P37059 1-387): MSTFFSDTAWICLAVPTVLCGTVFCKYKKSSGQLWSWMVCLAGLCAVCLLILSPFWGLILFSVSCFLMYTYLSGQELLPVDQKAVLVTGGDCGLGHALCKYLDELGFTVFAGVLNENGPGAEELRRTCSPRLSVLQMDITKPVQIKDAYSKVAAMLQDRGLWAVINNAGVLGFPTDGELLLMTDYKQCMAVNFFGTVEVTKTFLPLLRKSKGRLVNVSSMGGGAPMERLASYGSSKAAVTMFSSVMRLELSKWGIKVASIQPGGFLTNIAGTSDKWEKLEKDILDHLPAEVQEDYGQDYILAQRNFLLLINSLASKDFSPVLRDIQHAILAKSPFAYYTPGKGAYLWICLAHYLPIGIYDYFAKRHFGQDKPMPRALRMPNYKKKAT
Assay: Inhibition of 17β-HSD type 2 in MCF-7 cells stably expressing the isoenzyme (tritium labeled estradiol conversion, HPLC)
Type: cell-based
Conditions: MCF7; 10 μM test compound; MCF-7 cells expressing 17β-HSD type 2; 2 nM tritium labeled estradiol; read-out: % Inhibition HSD2 10 μM
measure-name: inhibition at 10 µM (%)

>>> print(df.to_string())
                                   molecule                         target_under_test  recorded_number
0  O=C1c2sc3nc(-c4ccc(Br)s4)n(Cc4ccccc4)c(=O)c3c2CCC1Br (stereo not drawn)  17β-hydroxysteroid dehydrogenase type 2 (17β-HSD type 2) (Homo sapiens)             34.6

I. COc1cc(-c2nc3sc4ccccc4c3c(=O)n2Cc2ccccc2)c(Br)c(OC)c1OC
II. O=c1c2c(nc(-c3ccccc3)n1Cc1ccccc1)sc1c(O)c(Br)ccc12
III. O=c1c2c3c(sc2nc(CO)n1Cc1ccccc1)CCCC3
IV. COCc1nc2sc3c(c2c(=O)n1-c1ccccc1)CCCC3=O
Endpoint returns the given molecules ordered by ascending inhibition at 10 µM. Lab note: record answer as labels in requested order.
IV, III, I, II

P. COc1cc(-c2nc3sc4c(O)cccc4c3c(=O)n2CC(C)C)c(Br)c(OC)c1OC
Q. CCCc1nc2sc3c(O)cccc3c2c(=O)n1Cc1cc(Br)ccc1O
Returns: the argument ( P or Q ) having the larger inhibition at 10 µM. // caller expects the label of the chosen entry
Q

----------
biological target: 17β-hydroxysteroid dehydrogenase type 3 (17β-HSD type 3) (Homo sapiens, UniProt P37058); construct: expressed in transfected cells; host or cells: MCF-7; assay: Inhibition of 17β-HSD type 3 in MCF-7 cells stably expressing the isoenzyme (tritium labeled androstenedione conversion, HPLC); format: cell-based; conditions: MCF7; 1 μM test compound; MCF-7 cells expressing 17β-HSD type 3; 2 nM tritium labeled androstenedione; read-out: % Inhibition HSD3 1 μM
Sequence (P37058 whole entry): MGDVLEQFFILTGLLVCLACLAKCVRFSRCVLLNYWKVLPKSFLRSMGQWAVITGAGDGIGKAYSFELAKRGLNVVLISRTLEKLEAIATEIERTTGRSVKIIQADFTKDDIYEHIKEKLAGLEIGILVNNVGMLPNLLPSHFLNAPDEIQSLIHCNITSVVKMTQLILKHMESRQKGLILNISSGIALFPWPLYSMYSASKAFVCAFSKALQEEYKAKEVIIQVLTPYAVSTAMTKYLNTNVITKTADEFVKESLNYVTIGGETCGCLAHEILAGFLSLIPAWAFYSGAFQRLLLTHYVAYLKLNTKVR
measure-name: inhibition at 1 µM (%)

Some entries whose results are on file:
>>> df
                                   compound                         target_under_test  recorded_number
0  CCCCn1c(-c2cc(OC)c(OC)c(OC)c2)nc2sc3c(O)c(Br)ccc3c2c1=O [No. 90]  17β-hydroxysteroid dehydrogenase type 3 (17β-HSD type 3) (Homo sapiens, UniProt P37058)                4
1  COc1cc(-c2nc3sc4c(c3c(=O)n2Cc2ccccc2)CCCC4)cc(OC)c1OC [No. 1]  17β-hydroxysteroid dehydrogenase type 3 (17β-HSD type 3) (Homo sapiens, UniProt P37058)             -8.8
2  COCCn1c(-c2cc(OC)c(OC)c(OC)c2)nc2sc3c(c2c1=O)CCCC3=O [No. 109]  17β-hydroxysteroid dehydrogenase type 3 (17β-HSD type 3) (Homo sapiens, UniProt P37058)              0.6
3  CCCc1nc2sc3c(c2c(=O)n1Cc1ccco1)CCCC3 [No. 101]  17β-hydroxysteroid dehydrogenase type 3 (17β-HSD type 3) (Homo sapiens, UniProt P37058)              5.7

a. CCOC1=C(C=O)CCc2c1sc1nc(-c3cc(OC)c(OC)c(OC)c3)n(Cc3ccccc3)c(=O)c21 [No. 7]
b. COc1cc(-c2nc3sc4c(c3c(=O)n2Cc2ccccc2)C(Br)CCC4=O)cc(OC)c1OC (stereo not drawn) [No. 137]
Smaller inhibition at 1 µM value? Options are a and b // caller expects the label of the chosen entry
a
(a: -17.6%, b: 19.3%)

a. CCC(C)Cn1c(-c2cc(OC)c(OC)c(OC)c2)nc2sc3c(O)cccc3c2c1=O (stereo not drawn) [No. 129]
b. CCCc1nc2sc3c(O)c(Br)ccc3c2c(=O)n1Cc1ccc(Br)o1 [No. 107]
Smaller inhibition at 1 µM value? Options are a and b // caller expects the label of the chosen entry
b

a. COc1cc(-c2nc3sc4c(O)cccc4c3c(=O)n2CC2CCCO2)c(Cl)c(OC)c1OC (stereo not drawn) [No. 140]
b. CCCc1nc2sc3c(OC(C)=O)cccc3c2c(=O)n1Cc1cc(Br)ccc1OC [No. 99]
c. O=Cc1nc2c(c(=O)n1Cc1ccccc1)C1=C(CCCC1)S2(=O)=O [No. 33]
Highest inhibition at 1 µM first, then in falling order down to the smallest. Lab note: record answer as labels in requested order.
b, a, c

A. O=C(OCCn1c(-c2cccs2)nc2sc3c(c2c1=O)CCCC3=O)c1cccs1 [No. 70]
B. COCCn1c(-c2cccs2)nc2sc3c(c2c1=O)CCC(Br)C3=O (stereo not drawn) [No. 76]
Smaller inhibition at 1 µM value? Options are A and B // caller expects the label of the chosen entry
A
(A: -4.1%, B: 47.1%)
